Hello, the source for this data is patent US9233961B2, in case you need it.

System: Leishmania donovani axenic amastigote parasites
Test: Leishmania donovani axenic amastigote proliferation assay
Type: cell-based
Settings: axenic amastigotes in vitro, read-out: L. donovani amastigotes EC50
Entries annotated with measured EC50
outcome_measure: EC50

INSERT INTO results (chemical_smiles, reported_result) VALUES
  ('Cc1cnc2nc(-c3cc(NC(=O)c4ncco4)ccc3Cl)[nH]c2c1', '> 25 µM'),
  ('Cc1cnc2nc(-c3cc(NC(=O)CCO)ccc3Cl)[nH]c2c1', '> 25 µM'),
  ('Cc1cnc2nc(-c3cc(NC(=O)N(C)C4CCCC4)ccc3Cl)[nH]c2c1', '> 25 µM'),
  ('Cc1cnc2nc(-c3cc(Nc4ccc(N(C)C)cn4)ccc3Cl)[nH]c2c1', '> 25 µM'),
  ('Cc1cnc2nc(-c3cc(NC(=O)c4cccc(N5CCCCC5)c4)ccc3Cl)[nH]c2c1', '> 25 µM'),
  ('Cc1cnc2nc(-c3cc(NC(=O)CCCN4CCOCC4)ccc3Cl)[nH]c2c1', '> 25 µM'),
  ('Cc1cnc2nc(-c3cc(NC(=O)Cc4ncccn4)ccc3Cl)[nH]c2c1', '> 25 µM'),
  ('Cc1cnc2nc(-c3cc(NC(=O)c4noc(C)n4)ccc3Cl)[nH]c2c1', '> 25 µM'),
  ('Cc1cnc2nc(-c3cc(NC(=O)Cn4cnnn4)ccc3Cl)[nH]c2c1', '> 25 µM'),
  ('Cc1cnc2nc(-c3cc(NC(=O)N4CCN(C)CC4)ccc3Cl)[nH]c2c1', '> 25 µM'),
  ('Cc1cnc2nc(-c3cc(NC(=O)OCc4ccccc4)ccc3Cl)[nH]c2c1', '> 25 µM'),
  ('COc1ccc(CC(=O)Nc2ccc(Cl)c(-c3nc4ncc(C)cc4[nH]3)c2)cc1', '> 25 µM'),
  ('Cc1cnc2nc(-c3cc(NC(=O)Cc4nnn[nH]4)ccc3Cl)[nH]c2c1', '> 25 µM');
